molecular target: α4β7 (adhesion of RPMI cells to CS-1) (Homo sapiens, UniProt P13612+P26010); construct: endogenous in cells; assay: RPMI-CS-1 cell adhesion assay; details: adhesion of RPMI B-cell line (expresses α4β7) to CS-1 peptide coated microwells; read-out: RPMI-CS-1 IC50 value range
Sequence (P13612 34-1032): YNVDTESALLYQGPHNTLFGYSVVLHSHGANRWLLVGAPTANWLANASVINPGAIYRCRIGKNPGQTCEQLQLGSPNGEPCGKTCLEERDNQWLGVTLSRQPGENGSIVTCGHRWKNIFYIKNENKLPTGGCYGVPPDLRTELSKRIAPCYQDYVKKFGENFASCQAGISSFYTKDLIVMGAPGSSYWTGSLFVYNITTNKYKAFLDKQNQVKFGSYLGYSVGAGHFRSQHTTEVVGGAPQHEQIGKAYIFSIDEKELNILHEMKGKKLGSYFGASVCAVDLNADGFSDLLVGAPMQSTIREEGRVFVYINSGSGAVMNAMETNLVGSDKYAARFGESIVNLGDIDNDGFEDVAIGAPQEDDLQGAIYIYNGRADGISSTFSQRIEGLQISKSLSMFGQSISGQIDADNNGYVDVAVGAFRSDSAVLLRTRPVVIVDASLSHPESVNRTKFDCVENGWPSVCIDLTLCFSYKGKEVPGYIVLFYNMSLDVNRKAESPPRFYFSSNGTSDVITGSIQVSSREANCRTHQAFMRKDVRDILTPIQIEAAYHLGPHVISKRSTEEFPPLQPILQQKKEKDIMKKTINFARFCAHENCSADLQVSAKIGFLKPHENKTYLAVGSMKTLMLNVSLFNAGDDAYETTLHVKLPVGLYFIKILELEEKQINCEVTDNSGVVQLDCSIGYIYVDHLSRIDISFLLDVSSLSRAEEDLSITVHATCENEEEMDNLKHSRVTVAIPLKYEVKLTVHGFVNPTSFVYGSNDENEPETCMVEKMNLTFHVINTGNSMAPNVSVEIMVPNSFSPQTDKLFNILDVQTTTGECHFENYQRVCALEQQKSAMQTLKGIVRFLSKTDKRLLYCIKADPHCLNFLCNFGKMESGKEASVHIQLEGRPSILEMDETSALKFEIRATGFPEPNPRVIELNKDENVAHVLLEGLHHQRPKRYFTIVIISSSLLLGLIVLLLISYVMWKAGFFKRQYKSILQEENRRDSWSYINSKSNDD
Sequence (P26010 20-798): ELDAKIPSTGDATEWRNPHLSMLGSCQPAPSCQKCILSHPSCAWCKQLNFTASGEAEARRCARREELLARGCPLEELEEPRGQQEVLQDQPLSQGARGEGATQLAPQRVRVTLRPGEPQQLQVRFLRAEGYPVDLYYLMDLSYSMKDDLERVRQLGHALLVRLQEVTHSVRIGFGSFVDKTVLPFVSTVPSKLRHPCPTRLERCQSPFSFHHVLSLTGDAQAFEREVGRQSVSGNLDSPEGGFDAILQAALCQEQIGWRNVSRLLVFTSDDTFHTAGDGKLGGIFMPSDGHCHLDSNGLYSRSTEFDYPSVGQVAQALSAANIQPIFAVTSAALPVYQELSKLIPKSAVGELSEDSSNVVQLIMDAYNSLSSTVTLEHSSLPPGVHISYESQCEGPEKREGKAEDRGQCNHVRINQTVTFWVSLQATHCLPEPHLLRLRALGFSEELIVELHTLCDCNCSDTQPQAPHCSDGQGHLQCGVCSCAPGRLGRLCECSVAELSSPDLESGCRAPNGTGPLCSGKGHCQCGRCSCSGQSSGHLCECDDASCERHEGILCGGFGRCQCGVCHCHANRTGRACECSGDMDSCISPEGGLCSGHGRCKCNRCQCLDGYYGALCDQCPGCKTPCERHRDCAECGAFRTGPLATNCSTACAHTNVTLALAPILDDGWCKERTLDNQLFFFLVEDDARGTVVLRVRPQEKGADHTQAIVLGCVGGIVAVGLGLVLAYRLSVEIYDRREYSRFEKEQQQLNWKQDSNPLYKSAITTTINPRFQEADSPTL
outcome.measure: IC50

// below: answered compounds
>  <compound>
COc1ccc(OC)c(-c2ccc(C[C@H](NC(=O)c3c(Cl)cccc3Cl)C(=O)O)cc2C(C)O)c1OC (stereo partly drawn) [Example 340]

>  <IC50>
< 300 nM

$$$$
>  <compound>
C[S+]([O-])c1ccccc1-c1ccc(C[C@H](NC(=O)c2c(Cl)cccc2Cl)C(=O)O)cc1 (single isomer, unassigned) [Example 152A]

>  <IC50>
< 300 nM

$$$$

We next turn to a different compound, shown below.
Answer briefly: IC50 recorded on α4β7 (adhesion of RPMI cells to CS-1) (Homo sapiens, UniProt P13612+P26010) for COc1cc(CN2CCCCC2)cc(OC)c1-c1ccc(C[C@H](NC(=O)c2c(Cl)cccc2Cl)C(=O)O)cc1 [Example 256] < 300 nM
